- test.system: ACEA (CEA/CEACAM5 A1 domain to B3 domain, N domain deleted) (Homo sapiens, UniProt P06731 P06731:145-675)
- Sequence (P06731 145-675, stated change not applied, one chain of several): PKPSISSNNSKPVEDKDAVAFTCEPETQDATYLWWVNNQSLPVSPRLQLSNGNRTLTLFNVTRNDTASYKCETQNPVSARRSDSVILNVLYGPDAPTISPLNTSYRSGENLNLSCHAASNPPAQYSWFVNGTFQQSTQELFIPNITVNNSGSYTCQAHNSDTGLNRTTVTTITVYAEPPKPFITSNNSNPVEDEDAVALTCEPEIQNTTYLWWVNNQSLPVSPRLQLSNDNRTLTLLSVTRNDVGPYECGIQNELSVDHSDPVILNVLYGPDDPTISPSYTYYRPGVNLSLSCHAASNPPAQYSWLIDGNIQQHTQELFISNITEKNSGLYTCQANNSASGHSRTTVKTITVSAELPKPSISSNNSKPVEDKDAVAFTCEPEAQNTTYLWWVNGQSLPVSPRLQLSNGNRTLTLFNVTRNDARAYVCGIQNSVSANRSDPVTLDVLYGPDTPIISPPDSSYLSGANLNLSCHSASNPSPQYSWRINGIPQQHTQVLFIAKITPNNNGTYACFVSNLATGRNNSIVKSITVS
- test.details: SPR; Biacore 2000
- assay.conditions: tags: pET28a(+), Ni-NTA (His), E. coli BL21; hairpin-loop (predicted)
Reported pKd is given for each of the following binders.
// pKd here means minus log10 of the molar concentration (mol/L)

>  <binder>
GUGCUGGGCUAGAAUAAUAAUAAGAAAACCAGUAC (ssRNA, 2'-F pyrimidines (C and U)) [Truncated GROUP 1-2 (19-2)]

>  <endpoint.label>
pKd

>  <recorded.number>
6.23

$$$$

Below: the item to evaluate.
Tell me the measured pKd of GCGGAAGCGUGCUGGGCUAGAAUAAUAAUAAGAAAACCAGUACUUUCGU (ssRNA, 2'-F pyrimidines (C and U)) [Truncated GROUP 1-1 (19-1, YJ-1)] , please. 6.22
